TARGET SYSTEM: EGFR (D770_N771insNPG) (Homo sapiens (Human), UniProt P00533, INS770NPG)
Sequence (P00533 other isoform, or with tags, fused parts or gaps del 1-668/ins NPG behind 770 limits assumed): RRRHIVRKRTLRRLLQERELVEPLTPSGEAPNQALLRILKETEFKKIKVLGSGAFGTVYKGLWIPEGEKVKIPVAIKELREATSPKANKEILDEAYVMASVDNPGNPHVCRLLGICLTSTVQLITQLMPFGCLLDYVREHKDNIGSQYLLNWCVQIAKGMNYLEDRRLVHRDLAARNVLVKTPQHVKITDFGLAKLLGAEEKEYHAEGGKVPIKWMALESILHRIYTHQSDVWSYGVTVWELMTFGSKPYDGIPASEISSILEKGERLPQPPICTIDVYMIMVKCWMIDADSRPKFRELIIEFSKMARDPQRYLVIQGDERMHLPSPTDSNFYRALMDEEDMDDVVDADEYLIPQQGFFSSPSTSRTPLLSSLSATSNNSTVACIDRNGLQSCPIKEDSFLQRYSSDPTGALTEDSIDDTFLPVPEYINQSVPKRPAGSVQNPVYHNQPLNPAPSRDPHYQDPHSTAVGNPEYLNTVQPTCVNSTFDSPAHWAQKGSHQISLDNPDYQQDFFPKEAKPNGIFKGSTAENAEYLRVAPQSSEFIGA
EXPERIMENT: HotSpot radiometric kinase assay, EGFR (D770_N771insNPG)
CONDITION SET: 10 μM ATP, read-out: EGFR (Δ770_N771insNPG) IC50
pIC50: −log10 of the molar value.
PARAMETER: pIC50

Use the examples below as a reference point.
COMPOUND	pIC50
Cc1nn(C2CCN(C)C2)c2c1/C=C/c1n[nH]c3ccc(cc13)-c1cnn(C)c1CN(C)CCO2 (stereo not shown)	7.18
Cc1nn(CCO)c2c1/C=C/c1n[nH]c3ccc(cc13)-c1cnn(C)c1OCCCO2	7.02
CCOc1nn(CCO)c2c1/C=C/c1n[nH]c3ccc(cc13)-c1cnn(C)c1O[C@H](C)[C@H]1CCCN1C2 (single isomer, unassigned)	9.74
Cc1c2c(nn1[C@H]1CCNC[C@@H]1O)OCCCOc1c(cnn1C)-c1ccc3[nH]nc(c3c1)/C=C/2 (racemic)	7.39

P: Cc1nn(CCN2CCCC2)c2c1/C=C/c1n[nH]c3ccc(cc13)-c1cnn(C)c1OCCCO2
Q: Cc1c2c(nn1CCN1CCCC1)CN(C)C[C@H](C)Oc1c(cnn1C)-c1ccc3[nH]nc(c3c1)/C=C/2
// which entry reports the smaller pIC50, P or Q ? Returns: label corresponding to the selected item.
P
(P: 6.34, Q: 6.72)

1: CCN1Cc2c(c(OC(C)C)nn2[C@@H](C)CO)/C=C/c2n[nH]c3cc(F)c(cc23)-c2cnn(C)c2O[C@@H](C)C1
2: CC(C)Oc1nn(CCO)c2c1/C=C/c1n[nH]c3ccc(cc13)-c1cnn(C)c1O[C@H](C)[C@H]1CCCN1C2
3: CCOc1noc2c1/C=C/c1n[nH]c3ccc(cc13)-c1cnn(C)c1O[C@@H](C)CN(C)C2
Give the ascending ranking of the items by reported pIC50. Answer format: list of labels, ordered as asked.
3, 1, 2

Origin of the recorded values: patent US20250353864A1
